# maps each entry to its IC50
# System: HCV replicon
# Type: cell-based

- compound: "CCCOc1ccc2c(C#N)c(-c3ccc(NC(=O)OC4CCCC4)cc3)n(C(C)C)c2c1"
  targetSystem: "HCV replicon"
  IC50: "< 0.5 µM"
- compound: "CCOc1ccc2c(C#N)c(-c3ccc(NC(=O)OCC4CCC4)cc3)n(C3CCC3)c2c1"
  targetSystem: "HCV replicon"
  IC50: "< 0.5 µM"
- compound: "CCCOC(=O)Nc1ccc(-c2c(C#N)c3ccc(OCC)cc3n2CC)cc1"
  targetSystem: "HCV replicon"
  IC50: "0.5 to 2 µM"
- compound: "CCCOC(=O)N(CC)c1ccc(-c2c(C#N)c3ccc(OCC)cc3n2C2CCC2)cc1"
  targetSystem: "HCV replicon"
  IC50: "0.5 to 2 µM"
- compound: "CCCn1c(-c2ccc(NC(=O)NCC)cc2)c(C#N)c2ccc(OCC)cc21"
  targetSystem: "HCV replicon"
  IC50: "0.5 to 2 µM"
- compound: "CCn1c(-c2ccc(NC(=O)OC)c(C)c2)c(C#N)c2ccc(OC)cc21"
  targetSystem: "HCV replicon"
  IC50: "0.5 to 2 µM"
- compound: "CCn1c(-c2ccc(NC(=O)OC)cc2)c(C#N)c2ccc(OC(F)(F)F)cc21"
  targetSystem: "HCV replicon"
  IC50: "0.5 to 2 µM"
- compound: "CCOc1ccc2c(c1)c(C#N)c(-c1ccc(NC(=O)OC(C)COC)cc1)n2C1CCC1 (centres unmarked)"
  targetSystem: "HCV replicon"
  IC50: "0.5 to 2 µM"

====

# maps each entry to its IC50
# Tested on: HCV replicon
# Format: cell-based
valueKind: IC50

- compound: "CCCS(=O)(=O)Nc1ccc(-c2c(C#N)c3ccc(OC(F)F)cc3n2C2CCCC2)cc1"
  targetSystem: "HCV replicon"
  valueKind: "IC50"
  result: "0.5 to 2 µM"
- compound: "CCOc1ccc2c(c1)c(C#N)c(-c1ccc(NC(=O)NC3CCCC3)cc1)n2C1CCC1"
  targetSystem: "HCV replicon"
  valueKind: "IC50"
  result: "< 0.5 µM"
- compound: "CCCCNC(=O)Nc1ccc(-c2c(C#N)c3ccc(OCC)cc3n2CC)cc1"
  targetSystem: "HCV replicon"
  valueKind: "IC50"
  result: "0.5 to 2 µM"
- compound: "CCn1c(-c2ccc(NC(=O)NCCCl)cc2)c(C#N)c2ccc(OCCCN3CCOCC3)cc21"
  targetSystem: "HCV replicon"
  valueKind: "IC50"
  result: "0.5 to 2 µM"
- compound: "CCOc1ccc2c(C#N)c(-c3ccc(NC(=O)OC4CCOC4)cc3)n(C3CCC3)c2c1 (centres unmarked)"
  targetSystem: "HCV replicon"
  valueKind: "IC50"
  result: "< 0.5 µM"
- compound: "CCOP(=O)(Nc1ccc(-c2c(C#N)c3ccc(OC)cc3n2C2CCC2)cc1)OCC"
  targetSystem: "HCV replicon"
  valueKind: "IC50"
  result: "0.5 to 2 µM"
- compound: "N#Cc1c(-c2ccc(NC(=O)NC3CCCC3)cc2)n(C2CCC2)c2cc(OC(F)F)ccc12"
  targetSystem: "HCV replicon"
  valueKind: "IC50"
  result: "0.5 to 2 µM"
- compound: "CCOc1ccc2c(C#N)c(-c3ccc(NC(=O)NC4CCCC4)cc3)n(C3CCCC3)c2c1"
  targetSystem: "HCV replicon"
  valueKind: "IC50"
  result: "< 0.5 µM"

Provenance of the data: patent US7973069B2
